- testedTarget: human CD96, native, on primary human T cells (human) (UniProt P40200)
- assayRemarks: flow cytometry on primary human CD3+ T cells
Measured pEC50 accompanies every entry in the list below.
# reply with the number alone; pEC50 is -log10 of concentration in mol/L

binder	pEC50
42Y073-86F04-4 (antibody, V domains shown) VH: QVQLVQSGAEVKKPGSSVKVSCKASGGTFESEAISWVRQAPGQGLEWMGGIIPIFGRARYAQKFQGRVTITADESTSTAYMELSSLRSEDTAVYYCARLLGESGMDVWGQGTTVTVSS VL: DIQMTQSPSSLSASVGDRVTITCRASQSISSYLNWYQQKPGKAPKLLIYAASSLQSGVPSRFSGSGSGTDFTLTISSLQPEDFATYYCQQPYFSPPTFGGGTKVEIK	10.30
42Y073-86F04-18 (antibody, V domains shown) VH: QVQLVQSGAEVKKPGSSVKVSCKASGGTFSSRAISWVRQAPGQGLEWMGGIIPIMGTARYAQKFQGRVTITADESTSTAYMELSSLRSEDTAVYYCARLLGESGMDVWGQGTTVTVSS VL: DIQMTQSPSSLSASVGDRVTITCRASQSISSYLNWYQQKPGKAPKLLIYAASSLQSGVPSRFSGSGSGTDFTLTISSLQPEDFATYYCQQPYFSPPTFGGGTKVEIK	11.00

Input 42Y073-86F08-4 (antibody, V domains shown) VH: QVQLVQSGAEVKKPGSSVKVSCKASGGTFSEYAIHWVRQAPGQGLEWMGNIIPIFGTAGYAQKFQGRVTITADESTSTAYMELSSLRSEDTAVYYCARGAGYYGDKDPMDVWGQGTTVTVSS VL: DIQLTQSPSSLSASVGDRVTITCRASQSISSYLNWYQQKPGKAPKLLIYAASSLQSGVPSRFSGSGSGTDFTLTISSLQPEDFATYYCQQVLHTITFGGGTKVEIK . Output pEC50: 11.00
